- subject_of_test: IP-3 receptor (Rattus norvegicus, UniProt P29994)
- Construct: determined using rat cerebellum membrane preparations; from tissue; host or cells: rat cerebellum (microsomal membrane preparation)
- Sequence (P29994 whole entry): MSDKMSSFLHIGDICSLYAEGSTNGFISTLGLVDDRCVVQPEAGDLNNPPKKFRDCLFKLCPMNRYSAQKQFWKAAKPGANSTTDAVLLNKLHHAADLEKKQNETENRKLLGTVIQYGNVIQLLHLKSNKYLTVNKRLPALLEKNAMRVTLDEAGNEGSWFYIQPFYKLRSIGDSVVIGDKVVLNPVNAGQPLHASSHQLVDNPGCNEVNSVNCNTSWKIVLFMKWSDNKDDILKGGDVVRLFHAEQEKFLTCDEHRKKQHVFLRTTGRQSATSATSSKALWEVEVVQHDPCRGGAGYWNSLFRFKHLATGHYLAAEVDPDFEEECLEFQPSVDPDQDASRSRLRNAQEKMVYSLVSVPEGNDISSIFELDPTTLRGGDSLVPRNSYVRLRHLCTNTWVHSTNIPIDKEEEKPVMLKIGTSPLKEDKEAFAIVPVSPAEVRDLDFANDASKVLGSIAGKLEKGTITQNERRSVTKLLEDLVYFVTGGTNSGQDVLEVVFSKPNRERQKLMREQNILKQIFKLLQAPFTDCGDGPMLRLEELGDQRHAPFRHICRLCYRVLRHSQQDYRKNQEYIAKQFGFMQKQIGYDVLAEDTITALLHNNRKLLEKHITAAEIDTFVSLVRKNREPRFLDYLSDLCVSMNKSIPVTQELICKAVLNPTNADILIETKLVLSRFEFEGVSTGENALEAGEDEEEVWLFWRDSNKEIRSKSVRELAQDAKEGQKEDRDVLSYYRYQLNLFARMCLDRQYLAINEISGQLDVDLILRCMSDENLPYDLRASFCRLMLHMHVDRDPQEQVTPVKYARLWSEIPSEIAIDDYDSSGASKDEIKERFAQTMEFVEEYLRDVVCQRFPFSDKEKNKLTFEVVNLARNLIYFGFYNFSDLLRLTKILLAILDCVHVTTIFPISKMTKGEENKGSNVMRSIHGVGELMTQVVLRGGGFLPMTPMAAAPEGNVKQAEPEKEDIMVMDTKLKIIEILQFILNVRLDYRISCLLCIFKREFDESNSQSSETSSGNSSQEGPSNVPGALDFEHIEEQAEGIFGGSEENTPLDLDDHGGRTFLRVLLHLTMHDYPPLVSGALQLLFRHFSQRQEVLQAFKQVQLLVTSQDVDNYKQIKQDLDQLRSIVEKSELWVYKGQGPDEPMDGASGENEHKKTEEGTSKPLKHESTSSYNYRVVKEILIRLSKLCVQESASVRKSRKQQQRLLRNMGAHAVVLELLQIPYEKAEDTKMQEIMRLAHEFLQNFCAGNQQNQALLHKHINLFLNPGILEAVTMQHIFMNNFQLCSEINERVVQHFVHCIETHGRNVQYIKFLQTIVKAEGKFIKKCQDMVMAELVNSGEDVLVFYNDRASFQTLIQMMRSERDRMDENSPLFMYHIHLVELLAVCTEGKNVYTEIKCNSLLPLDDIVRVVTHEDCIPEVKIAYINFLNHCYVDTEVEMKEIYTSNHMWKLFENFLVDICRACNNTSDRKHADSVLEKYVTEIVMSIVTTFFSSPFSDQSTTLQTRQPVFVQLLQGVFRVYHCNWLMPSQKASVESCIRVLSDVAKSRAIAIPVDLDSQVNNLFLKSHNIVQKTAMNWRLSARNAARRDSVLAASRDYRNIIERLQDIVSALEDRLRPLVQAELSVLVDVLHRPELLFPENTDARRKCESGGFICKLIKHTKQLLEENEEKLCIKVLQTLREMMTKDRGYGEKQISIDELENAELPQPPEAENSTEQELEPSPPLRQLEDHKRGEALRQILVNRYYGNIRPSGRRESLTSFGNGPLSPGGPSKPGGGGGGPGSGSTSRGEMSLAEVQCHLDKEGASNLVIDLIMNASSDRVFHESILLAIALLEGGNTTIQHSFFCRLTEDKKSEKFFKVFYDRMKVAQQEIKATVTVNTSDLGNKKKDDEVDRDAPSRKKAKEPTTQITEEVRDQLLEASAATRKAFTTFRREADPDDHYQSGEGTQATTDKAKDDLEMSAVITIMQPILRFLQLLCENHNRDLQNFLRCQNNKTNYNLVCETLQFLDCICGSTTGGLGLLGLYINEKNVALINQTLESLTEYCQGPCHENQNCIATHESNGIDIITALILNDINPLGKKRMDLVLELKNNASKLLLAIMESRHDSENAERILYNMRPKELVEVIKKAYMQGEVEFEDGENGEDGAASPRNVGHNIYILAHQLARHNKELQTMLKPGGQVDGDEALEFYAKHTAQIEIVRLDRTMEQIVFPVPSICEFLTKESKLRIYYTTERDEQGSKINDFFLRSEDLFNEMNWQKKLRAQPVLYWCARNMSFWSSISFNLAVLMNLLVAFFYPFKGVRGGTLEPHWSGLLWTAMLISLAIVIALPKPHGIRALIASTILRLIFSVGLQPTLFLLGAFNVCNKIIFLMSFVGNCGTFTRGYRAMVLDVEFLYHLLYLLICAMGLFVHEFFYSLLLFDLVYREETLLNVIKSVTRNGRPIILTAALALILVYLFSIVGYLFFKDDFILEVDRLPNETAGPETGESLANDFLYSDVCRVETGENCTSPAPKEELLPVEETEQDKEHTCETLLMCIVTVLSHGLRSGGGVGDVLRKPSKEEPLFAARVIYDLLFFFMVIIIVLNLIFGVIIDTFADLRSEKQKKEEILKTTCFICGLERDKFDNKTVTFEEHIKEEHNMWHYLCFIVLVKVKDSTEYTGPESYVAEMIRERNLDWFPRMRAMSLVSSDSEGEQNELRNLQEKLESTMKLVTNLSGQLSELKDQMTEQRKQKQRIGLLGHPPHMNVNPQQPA
- assay_method_text: IP-3 receptor antagonistic effect: inhibition of IP3 binding to its receptor in rat cerebellum membrane preparations
- condition_label: read-out: Average IC50
Counter-ions that a name gives are not always drawn.
Kindly state pIC50 for each of the entries shown.
Numbers only, as −log10 of the molar value.

Some compounds with known pIC50 results, for comparison:
compound	assay_result
O=S(=O)(O)OCC1OC(OCC2OC(OCC(OS(=O)(=O)O)C(OS(=O)(=O)O)C(OS(=O)(=O)O)C(COC3OC(COC4OC(COS(=O)(=O)O)C(OS(=O)(=O)O)C(OS(=O)(=O)O)C4OS(=O)(=O)O)C(OS(=O)(=O)O)C(OS(=O)(=O)O)C3OS(=O)(=O)O)OS(=O)(=O)O)C(OS(=O)(=O)O)C(OS(=O)(=O)O)C2OS(=O)(=O)O)C(OS(=O)(=O)O)C(OS(=O)(=O)O)C1OS(=O)(=O)O (stereo not drawn) [Example 10, potassium salt]	6.55
O=S(=O)(O)OC[C@H]1O[C@@H](OC[C@H](OS(=O)(=O)O)[C@@H](O[C@@H]2O[C@H](COS(=O)(=O)O)[C@@H](OS(=O)(=O)O)[C@H](OS(=O)(=O)O)[C@H]2OS(=O)(=O)O)[C@H](OS(=O)(=O)O)[C@@H](COS(=O)(=O)O)OS(=O)(=O)O)[C@H](OS(=O)(=O)O)[C@@H](OS(=O)(=O)O)[C@@H]1OS(=O)(=O)O [Example 8, potassium salt]	6.10

Next:
Fill blank: measured pIC50 of the compound O=S(=O)(O)OC[C@H]1O[C@@H](OC[C@H](OS(=O)(=O)O)[C@@H](OS(=O)(=O)O)[C@H](OS(=O)(=O)O)[C@@H](COS(=O)(=O)O)OS(=O)(=O)O)[C@H](OS(=O)(=O)O)[C@@H](OS(=O)(=O)O)[C@@H]1OS(=O)(=O)O [Example 3, potassium salt] is ____.
6.39

###

- subject_of_test: IP-3 receptor (Rattus norvegicus)
- Construct: determined using rat cerebellum membrane preparations; from tissue; host or cells: rat cerebellum (microsomal membrane preparation)
- assay_method_text: IP-3 receptor antagonistic effect: inhibition of IP3 binding to its receptor in rat cerebellum membrane preparations
- condition_label: read-out: Average IC50
Where a name gives a salt, the structure may show the parent alone.
assay_metric: pIC50
Numbers only, as −log10 of the molar value.

compound	pIC50
O=S(=O)(O)OC[C@H](OS(=O)(=O)O)[C@@H](O[C@@H]1O[C@H](COS(=O)(=O)O)[C@@H](OS(=O)(=O)O)[C@H](OS(=O)(=O)O)[C@H]1OS(=O)(=O)O)[C@H](OS(=O)(=O)O)[C@@H](COS(=O)(=O)O)OS(=O)(=O)O [Example 4, potassium salt]	6.79
O=S(=O)(O)OC[C@H]1O[C@@H](OC[C@@H](OS(=O)(=O)O)[C@@H](OS(=O)(=O)O)[C@H](OS(=O)(=O)O)[C@@H](COS(=O)(=O)O)OS(=O)(=O)O)[C@H](OS(=O)(=O)O)[C@@H](OS(=O)(=O)O)[C@@H]1OS(=O)(=O)O [Example 1, potassium salt]	7.00
O=S(=O)(O)OC[C@@H](OS(=O)(=O)O)[C@@H](OS(=O)(=O)O)[C@H](OS(=O)(=O)O)[C@@H](CO[C@H]1OC[C@@H](OS(=O)(=O)O)[C@@H](OS(=O)(=O)O)[C@@H]1OS(=O)(=O)O)OS(=O)(=O)O [Example 16, potassium salt]	6.15
O=S(=O)(O)OCC(OS(=O)(=O)O)C(OC1OC(COS(=O)(=O)O)C(OS(=O)(=O)O)C(OS(=O)(=O)O)C1OS(=O)(=O)O)C(OS(=O)(=O)O)C(COS(=O)(=O)O)OS(=O)(=O)O (centres unmarked) [Example 6, potassium salt]	6.59

Next:
Fill blank: measured pIC50 of the compound O=S(=O)(O)OC[C@H]1O[C@@H](OC[C@@H](OS(=O)(=O)O)[C@@H](OS(=O)(=O)O)[C@H](OS(=O)(=O)O)[C@@H](CO[C@@H]2O[C@H](COS(=O)(=O)O)[C@@H](OS(=O)(=O)O)[C@H](OS(=O)(=O)O)[C@H]2OS(=O)(=O)O)OS(=O)(=O)O)[C@H](OS(=O)(=O)O)[C@@H](OS(=O)(=O)O)[C@@H]1OS(=O)(=O)O [Example 9, potassium salt] is ____.
6.20

###

- subject_of_test: IP-3 receptor (Rattus norvegicus)
- Construct: determined using rat cerebellum membrane preparations; from tissue; host or cells: rat cerebellum (microsomal membrane preparation)
- assay_method_text: IP-3 receptor antagonistic effect: inhibition of IP3 binding to its receptor in rat cerebellum membrane preparations
- condition_label: read-out: Average IC50
Where a name gives a salt, the structure may show the parent alone.
assay_metric: pIC50
Give bare numbers, as −log10 of the molar value.

Some compounds with known pIC50 results, for comparison:
compound	pIC50
CO[C@@H]([C@H](OC)[C@@H](COS(=O)(=O)O)OS(=O)(=O)O)[C@@H](CO[C@@H]1O[C@H](CO[C@@H]2O[C@H](COS(=O)(=O)O)[C@@H](OS(=O)(=O)O)[C@H](OS(=O)(=O)O)[C@H]2OS(=O)(=O)O)[C@@H](OS(=O)(=O)O)[C@H](OS(=O)(=O)O)[C@H]1OS(=O)(=O)O)OS(=O)(=O)O [Example 14, potassium salt]	5.22
O=S(=O)(O)OC[C@H](OS(=O)(=O)O)[C@@H](OS(=O)(=O)O)[C@H](O[C@@H]1O[C@H](COS(=O)(=O)O)[C@H](OS(=O)(=O)O)[C@H](OS(=O)(=O)O)[C@H]1OS(=O)(=O)O)[C@@H](COS(=O)(=O)O)OS(=O)(=O)O [Example 7, potassium salt]	6.59
O=S(=O)(O)OC[C@H](OS(=O)(=O)O)[C@@H](OS(=O)(=O)O)[C@H](O[C@H]1O[C@H](COS(=O)(=O)O)[C@@H](OS(=O)(=O)O)[C@H](OS(=O)(=O)O)[C@H]1OS(=O)(=O)O)[C@@H](COS(=O)(=O)O)OS(=O)(=O)O [Example 5, potassium salt]	6.58

Next:
Fill blank: measured pIC50 of the compound O=S(=O)(O)OC[C@H](OS(=O)(=O)O)[C@@H](OS(=O)(=O)O)[C@H](OS(=O)(=O)O)[C@@H](CO[C@@H]1O[C@H](COS(=O)(=O)O)[C@@H](OS(=O)(=O)O)[C@H](OS(=O)(=O)O)[C@H]1OS(=O)(=O)O)OS(=O)(=O)O [Example 2, potassium salt] is ____.
5.85

###

Kindly state IC50 for each of the entries shown.
- subject_of_test: IP-3 receptor (Rattus norvegicus)
- Construct: determined using rat cerebellum membrane preparations; from tissue; host or cells: rat cerebellum (microsomal membrane preparation)
- assay_method_text: IP-3 receptor antagonistic effect: inhibition of IP3 binding to its receptor in rat cerebellum membrane preparations
- condition_label: read-out: IC 50 (μg/ml) Average ± SEM (n) (converted)
Counter-ions that a name gives are not always drawn.
One number for each entry, in nM.

Count: 4. Required value per item: IC50.
1. O=S(=O)(O)OC[C@H](OS(=O)(=O)O)[C@@H](O[C@@H]1O[C@H](COS(=O)(=O)O)[C@@H](OS(=O)(=O)O)[C@H](OS(=O)(=O)O)[C@H]1OS(=O)(=O)O)[C@H](OS(=O)(=O)O)[C@@H](COS(=O)(=O)O)OS(=O)(=O)O [Example 4, potassium salt]
2. O=S(=O)(O)OC[C@H]1O[C@@H](OC[C@@H](OS(=O)(=O)O)[C@@H](OS(=O)(=O)O)[C@H](OS(=O)(=O)O)[C@@H](COS(=O)(=O)O)OS(=O)(=O)O)[C@H](OS(=O)(=O)O)[C@@H](OS(=O)(=O)O)[C@@H]1OS(=O)(=O)O [Example 1, potassium salt]
3. O=S(=O)(O)OC[C@H]1O[C@@H](OC[C@H](OS(=O)(=O)O)[C@@H](O[C@@H]2O[C@H](COS(=O)(=O)O)[C@@H](OS(=O)(=O)O)[C@H](OS(=O)(=O)O)[C@H]2OS(=O)(=O)O)[C@H](OS(=O)(=O)O)[C@@H](COS(=O)(=O)O)OS(=O)(=O)O)[C@H](OS(=O)(=O)O)[C@@H](OS(=O)(=O)O)[C@@H]1OS(=O)(=O)O [Example 8, potassium salt]
4. O=S(=O)(O)OCC1OC(OCC2OC(OCC(OS(=O)(=O)O)C(OS(=O)(=O)O)C(OS(=O)(=O)O)C(COC3OC(COC4OC(COS(=O)(=O)O)C(OS(=O)(=O)O)C(OS(=O)(=O)O)C4OS(=O)(=O)O)C(OS(=O)(=O)O)C(OS(=O)(=O)O)C3OS(=O)(=O)O)OS(=O)(=O)O)C(OS(=O)(=O)O)C(OS(=O)(=O)O)C2OS(=O)(=O)O)C(OS(=O)(=O)O)C(OS(=O)(=O)O)C1OS(=O)(=O)O (centres unmarked) [Example 10, potassium salt]

[216, 131, 1050, 383]

IC50 of O=S(=O)(O)OC[C@H](OS(=O)(=O)O)[C@@H](OS(=O)(=O)O)[C@H](O[C@H]1O[C@H](COS(=O)(=O)O)[C@@H](OS(=O)(=O)O)[C@H](OS(=O)(=O)O)[C@H]1OS(=O)(=O)O)[C@@H](COS(=O)(=O)O)OS(=O)(=O)O [Example 5, potassium salt] on IP-3 receptor (Rattus norvegicus)?
347
